Test system: EMT6 cells
Test: Proliferation assay, EMT6
Type: cell-based, murine
Settings: Mus musculus; EMT6 proliferation, NPs versus free drug (FIG. 32)
MEASURED PARAMETER: IC50 (nM)
Write down the numeric answer in nM and omit the unit.

Query (compound): Cn1ncnc1[C@H]1c2n[nH]c(=O)c3cc(F)cc(c23)N[C@@H]1c1ccc(F)cc1 [talazoparib] ; field requested: IC50 8

Reference source for all entries: patent US20250352490A1
